Entry source: ChEMBL document CHEMBL1201862

System: TK-10
Test: NCI tumour cell line growth inhibition, 48 h
The source made the active and inactive calls. Cut-off read from the data, not from the text of the source: active = GI50 up to about 1.1 µM and inactive = higher. Where a SMILES comes first, the peptide text is derived from it. [ ]: non-standard residue; d: D form. The star is where a group is joined. ξ: configuration not given here. ξD = NC(CC(=O)O)C(=O)O; Ac3c = NC1(C(=O)O)CC1; Boc = CC(C)(C)OC(=O)*; OBn = c1ccc(CO*)cc1

[
  {
    "MOLECULE": "CC1(Sc2ccccc2)CN(Cc2ccccc2)C1=O (stereo not drawn)",
    "GI50": "> 100 µM (inactive)"
  },
  {
    "MOLECULE": "C[N+](C)(C)CC1CCCC/C1=N\\OC(=O)c1ccccc1 (stereo not drawn)",
    "GI50": "36.1 µM (inactive)"
  },
  {
    "MOLECULE": "CC(O)/C=C/C1OC(=O)CC1Nc1ccc(C=O)cc1 (stereo not drawn)",
    "GI50": "> 100 µM (inactive)"
  },
  {
    "MOLECULE": "COc1ccc(-c2nnc3n(Cc4ccccc4)c4ccccc4n3c2=O)cc1",
    "GI50": "21.9 µM (inactive)"
  },
  {
    "MOLECULE": "O=C1C(C(O)(C(F)(F)F)C(F)(F)F)CCC1C(O)(C(F)(F)F)C(F)(F)F (stereo not drawn)",
    "GI50": "42.1 µM (inactive)"
  },
  {
    "MOLECULE": "Clc1nc(Nc2nc3ccccc3[nH]2)nc(Cl)c1Cc1ccccc1",
    "GI50": "> 100 µM (inactive)"
  },
  {
    "MOLECULE": "O=C(N[C@H]1CCC[C@H]1C(=O)Nc1ccc(C(F)(F)F)cc1)OCc1ccccc1",
    "GI50": "> 100 µM (inactive)"
  },
  {
    "MOLECULE": "C#CC(C)(C)Oc1cc(O)c2c(=O)c3ccccc3n(C)c2c1",
    "GI50": "> 100 µM (inactive)"
  },
  {
    "MOLECULE": "c1ccc(-c2cc(-c3cc(-c4ccccc4)[nH]n3)[nH]n2)cc1",
    "GI50": "> 100 µM (inactive)"
  },
  {
    "MOLECULE": "Cc1nc2c(cc1OCc1ccccc1)C(=O)C1=C(C2=O)C2OC(=O)CC2OC1(C)C (stereo not drawn)",
    "GI50": "1.43 µM (inactive)"
  },
  {
    "MOLECULE": "Cc1cccc(Nc2nc(NNC(=O)Cc3ccccc3)nc(NNC(=O)c3ccncc3)n2)c1",
    "GI50": "> 10 µM (inactive)"
  },
  {
    "MOLECULE": "NC(=O)C12CC3CC(CC(Br)(C3)C1)C2",
    "GI50": "> 100 µM (inactive)"
  },
  {
    "MOLECULE": "N#C[C@@]12CCCC(=O)[C@@H]1[C@H]1CCC[C@H]12",
    "GI50": "19.9 µM (inactive)"
  },
  {
    "MOLECULE": "O=C(O)CCSC(=O)Nc1cccc2ccccc12",
    "GI50": "> 100 µM (inactive)"
  },
  {
    "MOLECULE": "Nc1nn(CC(O)CO)c(=O)s1 (stereo not drawn)",
    "GI50": "> 100 µM (inactive)"
  },
  {
    "MOLECULE": "COc1cc(NC(C)c2ccc3c(c2)OCCO3)cc(OC)c1OC (stereo not drawn)",
    "GI50": "63 µM (inactive)"
  },
  {
    "MOLECULE": "CCCCC[C@H](O)[C@H](C)C=C1SCCCS1",
    "GI50": "> 100 µM (inactive)"
  },
  {
    "MOLECULE": "C1=Nc2sc3c(c2C2=NCCN12)CCCC3",
    "GI50": "16.6 µM (inactive)"
  },
  {
    "MOLECULE": "O=c1[nH][nH]c(=O)n1Cc1ccccc1",
    "GI50": "> 100 µM (inactive)"
  },
  {
    "MOLECULE": "COc1ccc(C2SCC(=O)N2c2ccc(-n3c(-c4ccccc4)nc4ccccc4c3=O)cc2)cc1 (stereo not drawn)",
    "GI50": "> 100 µM (inactive)"
  },
  {
    "MOLECULE": "C[Si](C)(C)c1ccc(-c2c3ccc(-c4cc(Br)cc(Br)c4)nc3nc3nc(-c4cc(Br)cc(Br)c4)ccc23)cc1",
    "GI50": "> 100 µM (inactive)"
  },
  {
    "MOLECULE": "COC(=O)C1=CS/C(=C2\\S[C@@H]3[C@H](S2)[C@H]2C=C[C@@H]3C2)S1",
    "GI50": "> 100 µM (inactive)"
  },
  {
    "MOLECULE": "CN(C)CCCSc1nc2ccccc2[nH]1",
    "GI50": "> 100 µM (inactive)"
  },
  {
    "MOLECULE": "CCOC(=O)C[C@@H]1C2(C=C[C@@]13CO3)OCC(C)(C)CO2",
    "GI50": "> 100 µM (inactive)"
  },
  {
    "MOLECULE": "O=C1c2c(Cl)c(Cl)c(Cl)c(Cl)c2C(=O)N1CCN(c1c(Cl)ssc1=O)c1c(Cl)ssc1=O",
    "GI50": "18.7 µM (inactive)"
  },
  {
    "MOLECULE": "COc1cc(Nc2nc3ccc(C(F)(F)F)cc3nc2-c2ccccc2)cc(OC)c1OC",
    "GI50": "> 100 µM (inactive)"
  },
  {
    "MOLECULE": "COC(=O)C(NC(=O)CSc1nnc(COc2ccc(Cl)cc2)n1-c1ccccc1)C(C)C (stereo not drawn)",
    "GI50": "15.6 µM (inactive)"
  },
  {
    "MOLECULE": "CC(C)Cn1cnc2c(NCC(C)O)nc3ccccc3c21 (stereo not drawn)",
    "GI50": "91.4 µM (inactive)"
  },
  {
    "MOLECULE": "CC(=O)NC(Cc1c[nH]c2ccccc12)C(=O)O (stereo not drawn)",
    "GI50": "> 100 µM (inactive)"
  },
  {
    "MOLECULE": "Nc1nnc(N)n1NC(=O)C(=O)Nc1ccc([N+](=O)[O-])cc1",
    "GI50": "> 100 µM (inactive)"
  },
  {
    "MOLECULE": "Cc1cnc2cc(Cl)ccc2c1SCC(=O)O",
    "GI50": "> 100 µM (inactive)"
  },
  {
    "MOLECULE": "COC(=O)C1(NC(=O)C(CC(=O)OCc2ccccc2)NC(=O)OC(C)(C)C)CC1 (stereo not drawn) (Boc-[ξD](OBn)-[Ac3c]-OMe)",
    "GI50": "> 100 µM (inactive)"
  },
  {
    "MOLECULE": "COC(=O)c1ccc(NC(=O)O/N=C(\\Cl)C(C)C)cc1",
    "GI50": "3.05 µM (inactive)"
  }
]
